- Assay Text: GSH reactivity of compound in phosphate buffer assessed as half-life at pH 7.4 at 1 uM by LC-MS/MS analysis
- Type: physicochemical
- Test Conditions: phosphate buffer with GSH
Measurement Type: half-life at 1 µM (h)

These recorded examples may help you get a feel for the data.
INSERT INTO measurements (test_smiles, output_unit, experimental_value) VALUES
  ('C#CC(=O)NCCn1cc(-c2ncnc3cc(OC)c(OC)cc23)c(-c2cccc(OC)c2)n1', 'h', 0.917),
  ('C=CS(=O)(=O)NCCn1cc(-c2ncnc3cc(OC)c(OC)cc23)c(-c2cccc(OC)c2)n1', 'h', 1.15);

1 = C=CC(=O)Nc1ccc(OC)c(Nc2nccc(-c3c[nH]nc3-c3cccc(OC)c3)n2)c1
2 = C=CC(=O)NCCn1cc(-c2ncnc3cc(OC)c(OC)cc23)c(-c2cccc(OC)c2)n1
Problem: So which one has the bigger half-life at 1 µM here, 1 or 2 ? Indicate your choice by writing its label.
Result: 2
